System: His6-AbGtr18
Type: biochemical, A. baumannii K8
property.name: Activity of His6-AbGtr18 towards acceptor (in words)

Item CC(=O)N[C@H]1[C@H](OCCCNC(=O)OCc2ccccc2)O[C@H](CO)[C@@H](O[C@@H]2O[C@H](CO)[C@H](O)[C@H](O)[C@H]2O)[C@@H]1O [LacNAcβProNHCbz] : provide Activity of His6-AbGtr18 towards acceptor (in words)
limited activity

Item CC(=O)N[C@H]1[C@H](OCCCNC(=O)OCc2ccccc2)O[C@H](CO)[C@@H](O)[C@@H]1O [GlcNAcβProNHCbz] : provide Activity of His6-AbGtr18 towards acceptor (in words)
trace activity

Item CC(=O)N[C@H]1[C@@H](OCCCNC(=O)OCc2ccccc2)O[C@H](CO)[C@H](O)[C@@H]1O[C@@H]1O[C@H](CO)[C@H](O)[C@H](O)[C@H]1O [Galβ1-3GalNAcαProNHCbz] : provide Activity of His6-AbGtr18 towards acceptor (in words)
trace activity

Item O=[N+]([O-])c1ccc(O[C@H]2O[C@H](CO)[C@H](O)[C@H](O)[C@H]2O)cc1 [GalαpNP, 4-Nitrophenyl-α-D-galactopyranoside] : provide Activity of His6-AbGtr18 towards acceptor (in words)
much lower efficiencies

Item CC(=O)N[C@H]1[C@H](OCCCNC(=O)OCc2ccccc2)O[C@H](CO)[C@H](O)[C@@H]1O[C@@H]1O[C@H](CO)[C@H](O)[C@H](O)[C@H]1O [Galβ1-3GalNAcβProNHCbz] : provide Activity of His6-AbGtr18 towards acceptor (in words)
trace activity

New cases:
Item CC(=O)N[C@H]1[C@H](OCCCNC(=O)OCc2ccccc2)O[C@H](CO)[C@@H](O)[C@@H]1O[C@@H]1O[C@H](CO)[C@H](O)[C@H](O)[C@H]1O [Galβ1-3GlcNAcβProNHCbz] : provide Activity of His6-AbGtr18 towards acceptor (in words)
much lower efficiencies

Item CC(=O)N[C@H]1[C@H](OCCCNC(=O)OCc2ccccc2)O[C@H](CO)[C@H](O)[C@@H]1O [GalNAcβProNHCbz] : provide Activity of His6-AbGtr18 towards acceptor (in words)
much lower efficiencies

Item O=C(NCCCO[C@@H]1O[C@H](CO)[C@@H](O[C@@H]2O[C@H](CO)[C@H](O)[C@H](O)[C@H]2O)[C@H](O)[C@H]1O)OCc1ccccc1 [LacβProNHCbz] : provide Activity of His6-AbGtr18 towards acceptor (in words)
limited activity

Item O=[N+]([O-])c1ccc(O[C@@H]2O[C@H](CO)[C@H](O)[C@H](O)[C@H]2O)cc1 [GalβpNP, 4-nitrophenyl β-D-galactopyranoside] : provide Activity of His6-AbGtr18 towards acceptor (in words)
trace activity

Item CC(=O)N[C@H]1[C@@H](OCCCNC(=O)OCc2ccccc2)O[C@H](CO)[C@@H](O)[C@@H]1O [GlcNAcαProNHCbz] : provide Activity of His6-AbGtr18 towards acceptor (in words)
much lower efficiencies

* * *

System: His6-AbGtr18
Type: biochemical, A. baumannii K8
property.name: Yield (%) 15 min
Numeric answer only, unit % assumed.

Item CC(=O)N[C@H]1[C@@H](OCCCNC(=O)OCc2ccccc2)O[C@H](CO)[C@H](O)[C@@H]1O : provide Yield (%) 15 min
14.6

Item CC(=O)N[C@H]1[C@@H](OCCCNC(=O)OCc2ccccc2)O[C@H](CO)[C@@H](O)[C@@H]1O : provide Yield (%) 15 min
0.5

Item CC(=O)N[C@H]1[C@H](OCCCNC(=O)OCc2ccccc2)O[C@H](CO)[C@H](O)[C@@H]1O : provide Yield (%) 15 min
1.7

Item CC(=O)N[C@H]1[C@H](OCCCNC(=O)OCc2ccccc2)O[C@H](CO)[C@@H](O)[C@@H]1O[C@@H]1O[C@H](CO)[C@H](O)[C@H](O)[C@H]1O : provide Yield (%) 15 min
0.9
